Molecular target: human CPTP (wtCPTP)
Assay: FRET from CPTP Trp/Tyr to dansyl-PE in POPC vesicles
Type: binding
Conditions: pure POPC vesicles with 2 mol% dansyl-PE (apparent, vesicle PC concentration); pH 6.6, 150 mM NaCl, EDTA, 25 °C
experimental_readout: pKd
Kindly note that pKd refers to -log10 of the concentration in mol/L and answer with the value alone.

Exercise: Requested read-out: pKd. Entry: "CCCCCCCC/C=C\CCCCCCCC(=O)O[C@H](COC(=O)CCCCCCCCCCCCCCC)COP(=O)([O-])OCC[N+](C)(C)C"
Key: 5.75

* * *

We begin with a simple list: items and their reported Kd.
Biological target: human CPTP (wtCPTP)
Test: FRET from CPTP Trp/Tyr to dansyl-PE in POPC vesicles
Assay type: binding
Conditions: apparent Kd for POPC vesicles with 10 mol% lipid and 2 mol% dansyl-PE (vesicle PC concentration, not free lipid); pH 6.6, 150 mM NaCl, EDTA, 25 °C
Report as a plain number; the unit nM is understood.

Example results:
Exercise: What Kd value was documented for this molecule, CCCCCCCC/C=C\CCCCCCCC(=O)OC[C@H](COP(=O)(O)O[C@H]1[C@H](O)[C@@H](O)[C@H](OP(=O)(O)O)[C@@H](O)[C@H]1O)OC(=O)CCCCCCC/C=C\CCCCCCCC [PI-4P] ?
Key: 260

Exercise: Request the reported Kd associated with CCCCCCCC/C=C\CCCCCCCC(=O)OC[C@H](COP(=O)(O)O[C@@H]1[C@H](O)[C@H](O)[C@@H](OP(=O)(O)O)[C@H](OP(=O)(O)O)[C@H]1O)OC(=O)CCCCCCC/C=C\CCCCCCCC [PI-(4,5)P2]
Key: 260

Continue with the next molecule.
Exercise: Given the molecule CCCCCCCC/C=C\CCCCCCCC(=O)OC[C@H](COP(=O)(O)O[C@@H]1[C@H](O)[C@H](O)[C@@H](O)[C@H](O)[C@H]1O)OC(=O)CCCCCCC/C=C\CCCCCCCC [PI] , what is its reported Kd?
Key: 750
